- assay-text: gradient 5% acetonitrile 3 min, to 50% in 2 min, to 85% in 15 min, held 3 min, 100 µL/min
- study-conditions: column: Zorbax Extend-C18 2.1 x 50 mm; eluents: water / acetonitrile, 0.1% formic acid
The label True is reserved for RP-LC retention time strictly under 700 s; False covers values equal to or above it.

INPUT: State whether 700 s exceeds RP-LC retention time recorded for COc1ccc(-c2cc(C(=O)N3CCN(c4ccc(N5CCOCC5)nn4)CC3)[nH]n2)cc1 .
OUTPUT: True

INPUT: State whether 700 s exceeds RP-LC retention time recorded for O=C(Cn1ccc2ccn(Cc3cccnc3)c2c1=O)N1CCCC1 .
OUTPUT: True

INPUT: State whether 700 s exceeds RP-LC retention time recorded for COc1cccc(Sc2ccc(N3CCCC(C(=O)NCc4ccc5c(c4)OCO5)C3)nn2)c1 (centres undefined) .
OUTPUT: False

INPUT: State whether 700 s exceeds RP-LC retention time recorded for CCSc1nnc(NC(=O)C2CCC(=O)N2S(=O)(=O)c2ccc(C)cc2)s1 (centres undefined) .
OUTPUT: False

INPUT: State whether 700 s exceeds RP-LC retention time recorded for COCCN1C(=O)CCc2cc(NS(=O)(=O)c3ccccc3Cl)ccc21 .
OUTPUT: False

INPUT: State whether 700 s exceeds RP-LC retention time recorded for CCN(c1ccccc1)S(=O)(=O)c1cc(-c2[nH]ncc2C(=O)N2CCCC2)oc1C .
OUTPUT: False

INPUT: State whether 700 s exceeds RP-LC retention time recorded for CC1(C(=O)NC2CCCC2)Cn2cnc(C(=O)NCc3cccc(Cl)c3)c2C(=O)N1C1CC1 (centres undefined) .
OUTPUT: False

INPUT: State whether 700 s exceeds RP-LC retention time recorded for O=C(CSc1nnc(Cc2ccccc2)o1)N1CCOCC1 .
OUTPUT: True
